Ref: ChEMBL document CHEMBL4840329

test system: Enterococcus faecalis; assay: Anti-MDR bacterial activity against Enterococcus faecalis CCARM 5172 assessed as inhibition of bacterial growth incubated for 18 hrs by microplate reader analysis; format: functional; conditions: Enterococcus faecalis, CCARM 5172, 18 h, read-out: MIC

molecule	MIC
C[C@@]1(C(=O)O)[C@@H](O)CC[C@]2(C)c3cc4c5ccccc5n(-c5c6c(cc7c5[nH]c5ccccc57)[C@@]5(C)CC[C@H](O)[C@@](C)(C(=O)O)[C@@H]5CC6)c4cc3CC[C@@H]12 (stereo in doubt; 3)	> 12.5 µg/mL
C[C@@]1(C(=O)O)[C@@H](O)CC[C@]2(C)c3cc4c(cc3CC[C@@H]12)[nH]c1ccc(S(=O)(=O)c2c3c(cc5c2[nH]c2ccccc25)[C@@]2(C)CC[C@H](O)[C@@](C)(C(=O)O)[C@@H]2CC3)cc14	> 12.5 µg/mL
C[C@@]1(C(=O)O)[C@@H](O)CC[C@]2(C)c3cc4c(cc3CC[C@@H]12)[nH]c1ccc(-n2c3ccccc3c3cc5c(cc32)CC[C@H]2[C@](C)(C(=O)O)[C@@H](O)CC[C@]52C)cc14	3.12 µg/mL
CN(C)[C@@H]1C(O)=C(C(N)=O)C(=O)[C@@]2(O)C(O)=C3C(=O)c4c(O)cccc4[C@@](C)(O)[C@H]3C[C@@H]12	> 25 µg/mL
